- System: PPARg DBDmut IVT, anti-PPARg (DBD mutation: PPARg1 K132A/R137A, NR concentration 270 nM)
- Measurement description: PBM binding z-score (relative to random genomic background probes); higher = stronger binding; sequences stand for … in GC…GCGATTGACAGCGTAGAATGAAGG
Decide using PBM binding z-score: a value greater than or equal to -0.6 is satisfied, a smaller one is not satisfied.

Some entries whose results are on file:
{"columns": ["Sequence input", "Target or system", "Class"],
 "data": [
  ["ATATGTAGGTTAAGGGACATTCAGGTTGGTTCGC", "PPARg DBDmut IVT, anti-PPARg (DBD mutation: PPARg1 K132A/R137A, NR concentration 270 nM)", "satisfied"],
  ["TCCGCTAGGTCAGTTGGTCAGCTAACGAGCTGCC", "PPARg DBDmut IVT, anti-PPARg (DBD mutation: PPARg1 K132A/R137A, NR concentration 270 nM)", "not satisfied"],
  ["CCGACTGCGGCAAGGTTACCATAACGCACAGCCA", "PPARg DBDmut IVT, anti-PPARg (DBD mutation: PPARg1 K132A/R137A, NR concentration 270 nM)", "satisfied"],
  ["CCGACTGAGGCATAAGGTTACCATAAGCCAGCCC", "PPARg DBDmut IVT, anti-PPARg (DBD mutation: PPARg1 K132A/R137A, NR concentration 270 nM)", "not satisfied"],
  ["GTACCAAGGTGGATAGGTCGTTGATGAGTAGGCG", "PPARg DBDmut IVT, anti-PPARg (DBD mutation: PPARg1 K132A/R137A, NR concentration 270 nM)", "not satisfied"]
]}

Could you now consider this next sequence?
Please indicate if the recorded PBM binding z-score for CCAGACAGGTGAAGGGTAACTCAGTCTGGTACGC meets or exceeds -0.6.
not satisfied
